The values you see were collected from paper PMC2776349.

Listing of entries alongside the reported pIC50.
Test system: HIV-1HXB2 (gp41)
Settings: 1HXB2 (gp41, 48 h)
pIC50: −log10 of the molar value. Ends that are not written are not given here.
observationType: pIC50

GGHTTWMEWDREINKYISLIHSLIEESQNQQEKNEQELLGHHHHHH [N637K/T639I (KYI)]: 9.02
GGHTTWMEWDREINNYTSLIHSDIEESQNQQEKNEQELLGHHHHHH [Variant L645D]: 6.20
GGHTTWMEWDREINNYTSLAHSLIEESQNQQEKNEQELLGHHHHHH [Variant I642A]: 8.15
GGHTTWMEWDREANNYTSLIHSLIEESQNQQEKNEQELLGHHHHHH [Variant I635A]: 8.24
GGHTTWMEWDREDNNYTSLIHSLIEESQNQQEKNEQELLGHHHHHH [Variant I635D]: 5.51
GGHTTWMEWDREINNYTSLIHSLIEESQNAQEKNEQELLGHHHHHH [Variant Q652A]: 8.46
GGHTTWMEWDREINNYTSLIHSLIEESQNQQEKDEQELLGHHHHHH [Variant N656D]: 7.00
GGHTTWMEWDREINNYTSLIHSLIEEDQNQQEKNEQELLGHHHHHH [Variant S649D]: 5.64
